read-out: Cytochrome P450 2C19 (Homo sapiens); assay: LTEA_HepaRG_CYP2C19: Life Technologies and Expression Analysis (LTEA) Assay for CYP2C19 using HepaRG (AID 2283482); conditions: mRNA level, 48 h; actives raise or lower the signal
Calls of active or inactive are those of the source. How the source made its calls: active means hit-call score of the fitted dose curve at least 0.9, where 1 is the maximum; inactive means score below 0.9.
Parameter call: string, one of label 1 for active, label 0 for inactive

smiles.string	label.value
C=CCc1cc(S(=O)(=O)c2ccc(O)c(CC=C)c2)ccc1O	label 1

Recorded test call requested for `CCCCCCCC/C=C\CCCCCCCC(=O)OC[C@@H](O)[C@H]1OC[C@H](O)[C@H]1O` label 0

Recorded test call requested for `c1ccc2cc3ccccc3cc2c1` label 0

Recorded test call requested for `CCOC(N)=O` label 0

Recorded test call requested for `Cc1nc(-c2ccccn2)ncc1C(=O)Nn1cc(C)c2cc(F)ccc21` label 1

Recorded test call requested for `CCn1nc(C)c2c1C(=O)NCC(c1ccc(O)cc1)=N2` label 0

----------
assay: BSK_BT_Bcell_Proliferation: Viability Assessment in the BioMAP Diversity Plus: BT Assay for B cell Proliferation (AID 2284227); details: primary human B cells with PBMC
Activity calls are given as the source filed them. How the source made its calls: active means hit-call score of the fitted dose curve at least 0.9, where 1 is the maximum; inactive means score below 0.9.
measure.name: AC50

Below, each entry is followed by its recorded AC50 result.
smiles.string	measured.value
OC(O)(C(F)C(O)(O)C(F)(F)F)C(F)(F)F	30 µM (active)
OCCC(F)(F)C(F)(F)C(F)(F)C(F)(F)F	inactive
O=C(Cl)C(F)(F)C(F)(F)C(F)(F)C(=O)Cl	inactive
FC(F)=C(F)C(F)(F)C(F)(F)C(F)(F)C(F)(F)C(F)(F)C(F)(F)F	inactive
FC(F)(F)COC(OCC(F)(F)F)OCC(F)(F)F	inactive
FC(F)(F)C(F)(F)C(F)(F)C(F)(F)C(F)(F)C(F)(F)I	inactive

Query compound follows.
Fill in AC50 for record `S=P(N1CC1)(N1CC1)N1CC1` 8.1 µM (active)

----------
read-out: Plasminogen activator inhibitor-1 (PAI1), SERPINE1 (gene 5054); experiment: BSK_hDFCGF_PAI1: BioMAP Diversity Plus: hDFCGF Assay for Plasminogen activator inhibitor-1 (PAI1) Biomarker Activity (AID 2283066); settings: primary human foreskin fibroblasts; actives raise or lower the signal
The source made the active and inactive calls. The calls were made as follows: active = hit-call score of the fitted dose curve at least 0.9, where 1 is the maximum; inactive = score below 0.9.

smiles.string	outcome
C[Si](C)(C)C(F)(F)C(F)(F)C(F)(F)F	inactive
CCCCCCCCCC	inactive
CCCCCOC(C)=O	inactive

----------
read-out: Alkaline Phosphatase, Placental (ALPP) gene, ALPP (gene 250); experiment: LTEA_HepaRG_ALPP: Life Technologies and Expression Analysis (LTEA) Assay for Alkaline Phosphatase, Placental (ALPP) gene using HepaRG (AID 2283468); conditions: mRNA level, 48 h; actives raise or lower the signal
Active and inactive are the calls of the source. The calls were made as follows: active = hit-call score of the fitted dose curve at least 0.9, where 1 is the maximum; inactive = score below 0.9.
Parameter call: string, one of true (1) (active), false (0) (inactive)

smiles.string	label.value
Nc1ccn([C@@H]2O[C@H](CO)[C@@H](O)[C@@H]2O)c(=O)n1	false (0)
O=S(=O)(O)c1ccc(N=Nc2c(O)ccc3cc(S(=O)(=O)O)ccc23)cc1	false (0)
CCCCCCCC/C=C\CCCCCCCC(=O)OC[C@@H](O)[C@H]1OC[C@H](O)[C@H]1O	false (0)

Recorded test call requested for `CCOc1ccc2[nH]cc(C(=O)NCc3ccccc3)c(=O)c2n1` false (0)

Recorded test call requested for `CCc1ccc(O)c(C(C)(C)C)c1` false (0)

Recorded test call requested for `COS(C)(=O)=O` false (0)

Recorded test call requested for `CCCCOC(=O)c1ccccc1` false (0)

Recorded test call requested for `O=C(O)[C@H](O)[C@@H](O)C(=O)O` false (0)

Recorded test call requested for `Cc1ncc([C@@H](CCCCCCc2ccc3c(n2)NCCC3)CC(=O)O)cn1` false (0)

Recorded test call requested for `CC(C)C(=O)Nc1ccc([N+](=O)[O-])c(C(F)(F)F)c1` true (1)

Recorded test call requested for `CCCCN1C(=O)[C@@H]([C@H](O)C2CCCCC2)NC(=O)C12CCN(Cc1ccc(Oc3ccc(C(=O)O)cc3)cc1)CC2` true (1)

----------
test: ATG_PPRE_CIS: Attagene CIS-FACTORIAL HepG2 Assay for human Peroxisome Proliferator-activated Response Element (PPRE) (AID 2282958); conditions: HepG2 PPRE cis-element reporter, Attagene transcription factor profiling; actives raise or lower the signal
The source made the active and inactive calls. How the source made its calls: active means hit-call score of the fitted dose curve at least 0.9, where 1 is the maximum; inactive means score below 0.9.
measure.name: outcome

compound	measure.name	measured.value
CCCCCOC(C)=O	outcome	inactive
c1ccc2cc3ccccc3cc2c1	outcome	inactive
CC(C)CC(C)O (configuration not stated)	outcome	inactive
NC(=O)N(O)[C@@H]1COc2cc(OCc3ccccc3)ccc21	outcome	inactive
O=C(NO)C1(NS(=O)(=O)c2ccc(Oc3ccc(F)cc3)cc2)CCOCC1	outcome	inactive

Fill in outcome for record `Cn1c(=O)c2[nH]cnc2n(C)c1=O` inactive

Fill in outcome for record `O=c1[nH]cnc2c1ncn2[C@H]1CC[C@@H](CO)O1` inactive

----------
read-out: Cyclin D1 (CCND1), CCND1 (gene 595); test: LTEA_HepaRG_CCND1: Life Technologies and Expression Analysis (LTEA) Assay for Cyclin D1 (CCND1) using HepaRG (AID 2283451); details: mRNA level, 48 h; actives raise or lower the signal
Activity calls are given as the source filed them. The calls were made as follows: active = hit-call score of the fitted dose curve at least 0.9, where 1 is the maximum; inactive = score below 0.9.
measure.name: outcome

smiles.string	measure.name	measured.value
OC(CCl)CCl	outcome	inactive
Cn1cc[nH]c1=S	outcome	inactive
CCOc1ccc2[nH]cc(C(=O)NCc3ccccc3)c(=O)c2n1	outcome	inactive
COCc1nnc(-c2ccc[n+]([O-])c2)n1-c1c(Cl)c(Cl)cc2[nH]c(=O)c(=O)[nH]c12	outcome	inactive
CC1(C)C(=O)N(Cl)C(=O)N1Cl	outcome	inactive

Fill in outcome for record `OCCOCCOCCO` inactive

Fill in outcome for record `C=CN1CCCC1=O` inactive

Fill in outcome for record `Cc1nc(-c2ccccn2)ncc1C(=O)Nn1cc(C)c2cc(F)ccc21` inactive

Fill in outcome for record `CCN(CC)C(=S)SSC(=S)N(CC)CC` inactive

Fill in outcome for record `Cc1ccc(S(=O)(=O)NC(=O)NN2CCCCCC2)cc1` inactive

Fill in outcome for record `NC(=O)NN=Cc1ccc([N+](=O)[O-])o1` inactive

----------
read-out: CYP2C9 (gene 1559); experiment: LTEA_HepaRG_CYP2C9: Life Technologies and Expression Analysis (LTEA) Assay for CYP2C9 using HepaRG (AID 2283484); conditions: mRNA level, 48 h; actives raise or lower the signal
Calls of active or inactive are those of the source. How the source made its calls: active means hit-call score of the fitted dose curve at least 0.9, where 1 is the maximum; inactive means score below 0.9.
Parameter call: string, one of 1 = active, -1 = inactive

smiles.string	label.value
NNC(=O)c1ccncc1	-1
NC(N)=O	-1
CCCCCCCCCC	-1
NC(=O)N(O)[C@@H]1COc2cc(OCc3ccccc3)ccc21	-1

Recorded test call requested for `O=C(O)c1cccc(C[C@@H]2COc3ccc(OCc4nc5cc(F)ccc5s4)cc3[C@@H]2O)c1` 1

Recorded test call requested for `CC[C@H](C)C(=O)O[C@H]1C[C@H](O)C=C2C=C[C@H](C)[C@H](CC[C@@H](O)C[C@@H](O)CC(=O)O)[C@H]21` -1

Recorded test call requested for `C=CCc1cc(S(=O)(=O)c2ccc(O)c(CC=C)c2)ccc1O` 1

Recorded test call requested for `OC(CCl)CCl` -1

Recorded test call requested for `O=C(NO)C1(NS(=O)(=O)c2ccc(Oc3ccc(F)cc3)cc2)CCOCC1` -1

Recorded test call requested for `CC(=O)c1ccccc1` -1

Recorded test call requested for `CCCCCCCCN(C)C` -1

Recorded test call requested for `CC1(C)C(=O)N(Cl)C(=O)N1Cl` -1

Recorded test call requested for `O=C1CN(N=Cc2ccc([N+](=O)[O-])o2)C(=O)N1` -1

----------
read-out: Bcl-2 (BAX) gene, BAX (gene 581); test: LTEA_HepaRG_BAX: Life Technologies and Expression Analysis (LTEA) Assay for Bcl-2 (BAX) gene using HepaRG (AID 2283470); conditions: mRNA level, 48 h; actives raise or lower the signal
The source made the active and inactive calls. The calls were made as follows: active = hit-call score of the fitted dose curve at least 0.9, where 1 is the maximum; inactive = score below 0.9.
measure.name: outcome

compound	outcome
CCCCCCOC(=O)CC(CC(=O)OCCCCCC)(OC(=O)CCC)C(=O)OCCCCCC	inactive
C[C@]12C=CC(=O)C=C1CC[C@H]1[C@@H]3C[C@@H](O)[C@](O)(C(=O)CO)[C@@]3(C)C[C@H](O)[C@@]12F	inactive
CC(C)CCCCCCOC(=O)C1CCCCC1C(=O)OCCCCCCC(C)C (stereo not given)	inactive
OC(Cn1cncn1)(Cn1cncn1)c1ccc(F)cc1F	inactive

Query compound follows.
Fill in outcome for record `CCn1nc(C)c2c1C(=O)NCC(c1ccc(O)cc1)=N2` inactive

----------
read-out: Matrix Metallopeptidase 1 (MMP1), MMP1 (gene 4312); test: BSK_hDFCGF_MMP1: BioMAP Diversity Plus: hDFCGF Assay for Matrix Metallopeptidase 1 (MMP1) Biomarker Activity (AID 2283064); settings: primary human foreskin fibroblasts; actives raise or lower the signal
Activity calls are given as the source filed them. How the source made its calls: active means hit-call score of the fitted dose curve at least 0.9, where 1 is the maximum; inactive means score below 0.9.
Parameter call: string, one of class 1 for active, class 0 for inactive

Recorded test call requested for `Cc1ccc(S(=O)(=O)NC(=O)NN2CCCCCC2)cc1` class 0
